Source of measurements: patent US4983602A

Exercise: state measured Minimal inhibitory concentration for each of the compounds provided.
# Tested on: Mycobacterium tuberculosis H37 Rv
# TEST_PROTOCOL: Minimal inhibitory concentration against a tubercle bacillus
# CONDITION: Kirchner liquid medium containing 10% bovine serum, 37° C., 4 weeks
Reply with just the number (in µg/mL).

Exam item: Param readout = Minimal inhibitory concentration; param system = Mycobacterium tuberculosis H37 Rv; param query = COC1C=COC2(C)Oc3c(C)c(O)c4c(=O)c(c5oc6cc(N7CCN(CC8CC8)CC7)cc(O)c6nc-5c4c3C2=O)NC(=O)C(C)=CC=CC(C)C(O)C(C)C(O)C(C)C(OC(C)=O)C1C (centres unmarked) ; response: value
Marked response: 0.017

Exam item: Moving on to the next compound: COC1C=COC2(C)Oc3c(C)c(O)c4c(=O)c(c5oc6cc(N7CCN(C(C)(C)C)CC7)cc(O)c6nc-5c4c3C2=O)NC(=O)C(C)=CC=CC(C)C(O)C(C)C(O)C(C)C(OC(C)=O)C1C (centres unmarked)
Marked response: 0.008

Exam item: Moving on to the next compound: COC1C=COC2(C)Oc3c(C)c(O)c4c(=O)c(c5oc6cc(N7CCN8CCCC8C7)cc(O)c6nc-5c4c3C2=O)NC(=O)C(C)=CC=CC(C)C(O)C(C)C(O)C(C)C(OC(C)=O)C1C (centres unmarked)
Marked response: 0.15

Exam item: Moving on to the next compound: CO[C@H]1/C=C/O[C@@]2(C)Oc3c(C)c(O)c4c(O)c(c(/C=N/N5CCN(C)CC5)c(O)c4c3C2=O)NC(=O)/C(C)=C\C=C\[C@H](C)[C@H](O)[C@@H](C)[C@@H](O)[C@@H](C)[C@H](OC(C)=O)[C@@H]1C [Rifampicin, reference compound]
Marked response: 0.6

Exam item: Moving on to the next compound: CCC(C)N1CCN(c2cc(O)c3nc4c5c6c7c(C)c(O)c5c(=O)c(c-4oc3c2)NC(=O)C(C)=CC=CC(C)C(O)C(C)C(O)C(C)C(OC(C)=O)C(C)C(OC)C=COC(C)(O7)C6=O)CC1 (centres unmarked)
Marked response: 0.017

Exam item: Moving on to the next compound: COC1C=COC2(C)Oc3c(C)c(O)c4c(=O)c(c5oc6cc(N7CCN(CC=C(C)C)CC7)cc(O)c6nc-5c4c3C2=O)NC(=O)C(C)=CC=CC(C)C(O)C(C)C(O)C(C)C(OC(C)=O)C1C (centres unmarked)
Marked response: 0.035

Exam item: Moving on to the next compound: COC1C=COC2(C)Oc3c(C)c(O)c4c(=O)c(c5oc6cc(N7CCN(CCC(C)C)CC7)cc(O)c6nc-5c4c3C2=O)NC(=O)C(C)=CC=CC(C)C(O)C(C)C(O)C(C)C(OC(C)=O)C1C (centres unmarked)
Marked response: 0.07

Exam item: Moving on to the next compound: C=CCCN1CCN(c2cc(O)c3nc4c5c6c7c(C)c(O)c5c(=O)c(c-4oc3c2)NC(=O)C(C)=CC=CC(C)C(O)C(C)C(O)C(C)C(OC(C)=O)C(C)C(OC)C=COC(C)(O7)C6=O)CC1 (centres unmarked)
Marked response: 0.017

Exam item: Moving on to the next compound: COC1C=COC2(C)Oc3c(C)c(O)c4c(=O)c(c5oc6cc(N7CCN(CC(C)C)CC7)cc(O)c6nc-5c4c3C2=O)NC(=O)C(C)=CC=CC(C)C(O)C(C)C(O)C(C)C(OC(C)=O)C1C (centres unmarked)
Marked response: 0.017

Exam item: Moving on to the next compound: CCCCN1CCN(c2cc(O)c3nc4c5c6c7c(C)c(O)c5c(=O)c(c-4oc3c2)NC(=O)C(C)=CC=CC(C)C(O)C(C)C(O)C(C)C(OC(C)=O)C(C)C(OC)C=COC(C)(O7)C6=O)CC1 (centres unmarked)
Marked response: 0.035

Exam item: Moving on to the next compound: C=CCN1CCN(c2cc(O)c3nc4c5c6c7c(C)c(O)c5c(=O)c(c-4oc3c2)NC(=O)C(C)=CC=CC(C)C(O)C(C)C(O)C(C)C(OC(C)=O)C(C)C(OC)C=COC(C)(O7)C6=O)CC1 (centres unmarked)
Marked response: 0.035
